Tested on: BT-549
experiment: NCI tumour cell line growth inhibition, 48 h
Activity calls are given as the source filed them. Rule as the data show it: active = GI50 up to about 1.1 µM and inactive = higher.
Answer with one of the outcomes T for active, F for inactive

| given.smiles | category |
| --- | --- |
| Cc1cnc2[nH]c(-c3cccc(F)c3)cc(=O)c2c1 | T |
| N#Cc1ccccc1OCCOc1ccccc1C#N | F |
| COc1ccc2[nH]c3c(c2c1)CCc1ccccc1-3 | F |
| Cc1nc2ccc(S(=O)(=O)Nc3ccccc3)cc2c(=O)n1NC(=O)CNc1ccccc1 | F |

Below: the item to evaluate.
# fetch the recorded call for C(=N\Nc1ccc(-c2nc3ccccc3[nH]2)cc1)/c1c(-c2ccc(Cc3ccccc3)cc2)[nH]c2ccccc12 here
F
